# testedOn: human TrkA on CellSensor TrkA-NFAT-bla CHO-K1 cells (human, UniProt P04629 33-796)
# Sequence (P04629 33-796 limits assumed, form in doubt): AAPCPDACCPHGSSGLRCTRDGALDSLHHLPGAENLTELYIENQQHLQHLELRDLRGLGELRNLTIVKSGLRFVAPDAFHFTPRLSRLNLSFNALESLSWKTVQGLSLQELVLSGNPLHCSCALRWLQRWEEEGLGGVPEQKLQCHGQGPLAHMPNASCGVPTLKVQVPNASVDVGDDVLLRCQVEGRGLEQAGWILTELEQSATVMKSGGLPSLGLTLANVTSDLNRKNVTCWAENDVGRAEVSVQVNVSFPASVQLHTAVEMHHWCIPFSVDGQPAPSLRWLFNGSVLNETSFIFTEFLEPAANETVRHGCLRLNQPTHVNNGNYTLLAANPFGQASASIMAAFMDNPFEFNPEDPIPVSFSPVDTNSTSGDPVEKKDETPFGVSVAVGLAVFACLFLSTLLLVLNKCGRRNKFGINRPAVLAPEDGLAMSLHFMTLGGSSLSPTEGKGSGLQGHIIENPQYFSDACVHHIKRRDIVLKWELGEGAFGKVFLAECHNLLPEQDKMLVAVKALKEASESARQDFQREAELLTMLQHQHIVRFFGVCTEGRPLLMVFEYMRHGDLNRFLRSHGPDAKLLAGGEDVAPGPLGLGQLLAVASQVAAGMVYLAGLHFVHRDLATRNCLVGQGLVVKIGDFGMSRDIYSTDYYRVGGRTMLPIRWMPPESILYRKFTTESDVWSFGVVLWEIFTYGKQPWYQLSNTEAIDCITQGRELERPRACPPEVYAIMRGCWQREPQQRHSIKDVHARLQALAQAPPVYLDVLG
# procedureDetails: cell-based or functional assay
measuredAttribute: NFAT IC50
Answer shape: numeric part, then the unit.

As a guide, the following entries are already answered.
What value of NFAT IC50 has been reported for the following binder? PHD48-08 (antibody, IgG4, V domains shown) VH: QVQLVQSGAEVKKPGASVKVSCKASGYTFTTYWMHWVRQAPGQGLEWIGTIYPGNSDSSNAQKFQGRVTLTADTSTSTAYMELSSLRSEDTAVYYCTRFYYEDWYFDVWGQGTTVTVSS VL: DIQMTQSPSSLSASVGDRVTITCRASSSVSYLYWFQQKPGKAPKPLIYRTSNLASGVPSRFSGSGSGTDYTLTISSLQPEDFATYYCQQYHSYPPTFGGGTKVEIK
188 nM

What value of NFAT IC50 has been reported for the following binder? PHD49-11 (antibody, IgG4, V domains shown) VH: QVQLVQSGAEVKKPGSSVKVSCKASGYTFSSYWMQWVRQAPGQGLEWIGAIYPGDDDTIYTQKFKGRATITADKSTSTAYMELSSLRSEDTAVYYCARNYDYQAWFAYWGQGTLVTVSS VL: DIQMTQSPSSLSASVGDRVTITCRASSSVSYLYWYQQKPGKAPKPWIYLTSNLASGVPSRFSGSGSGTDYTLTISSLQPEDFATYYCQQWSSNPLTFGQGTKLEIK
269 nM

What value of NFAT IC50 has been reported for the following binder? PHD49 (antibody, V domains shown) VH: QVQLVQSGAEVKKPGSSVKVSCKASGFTFSSYWIQWVRQAPGQGLEWIGAIYTGDGDTIYTQKFQGRATITTDESTSTAYMELSSLRSEDTAVYYCARNYHYQAWFDYWGQGTLVTVSS VL: DIQMTQSPSSLSASVGDRVTITCRASSSVSYLYWYQQKPGKAPKPLIYLTSSLASGVPSRFSGSGSGTDYTLTISSLQPEDFATYYCQQWSSNPLTFGQGTKLEIK
266 nM

Field: next binder
What value of NFAT IC50 has been reported for the following binder? PHD48 (antibody, V domains shown, also called full-length PHD48 antibody) VH: QVQLVQSGAEVKKPGASVKVSCKASGYTFTTYWMHWVRQAPGQGLEWIGTIYPGNSDSSNAQKFQGRVTLTRDTSTSTAYMELSSLRSEDTAVYYCTRFYYEDWYFDVWGQGTTVTVSS VL: DIQMTQSPSSLSASVGDRVTITCRASSSVSYLYWFQQKPGKAPKPLIYRTSNLASGVPSRFSGSGSGTDYTLTISSLQPEDFATYYCQQYHSYPPTFGGGTKVEIK
66.5 nM

The values you see were collected from patent US20240002516A1.
